- TGT: T1, canine OX40L, full length membrane form, expressed on HEK293 cells (canine)
- T1 chain: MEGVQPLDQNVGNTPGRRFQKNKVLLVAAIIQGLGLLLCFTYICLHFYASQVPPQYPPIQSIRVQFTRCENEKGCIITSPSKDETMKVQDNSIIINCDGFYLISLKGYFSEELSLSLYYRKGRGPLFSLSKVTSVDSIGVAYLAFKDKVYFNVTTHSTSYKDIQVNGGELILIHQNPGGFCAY
- MEASUREMENT_DESCRIPTION: cell-based or functional assay
ASSAY_METRIC: % Signal Inhibition Rep1 (%)
Just the number in %, nothing appended.

binder="PMX156 (antibody, V domains shown) VH: ELQLVESGGDLVKPAGSLRLSCVASGFTFSNFRMSWVRQAPGKGLQFVAGINSDGYSTQYRDDVKGRFTISRDNTEKTLYLQMNNLRVEDTAMYYCVKDQGSWGGNFDYWGQGTLVTVSS VL: SYGLTQPPSVNVTLRETAHITCGGDSIGSKYVQWIQQIPGQAPVVIIYKDRNRPTGIPERFSGANSGNTATLTISGALAEDEADYYCQVGDSGTSVFGGGTHLTVL" unit_label=% result_number=21.6
binder="PMX154 (antibody, V domains shown) VH: EVQLVESGGDLVKPEGSLRLSCVVSGFTFSGFDMSWVRQAPGKGLQWVAYISTDGRSTGYTDAVKGRFTISRDNVKNTLYLQMNSLRTEDTAVYYCAKETRHWGFDYWGQGTLVIVSS VL: SYVLTQLSSVSVSLRQTAHITCGGDSIGRKNVYWHQQKLGRAPILIIYDDSSRPSGIPERFSGANSGNTATLTISGALAEDEAAYYCQVWDSSTSVFGGGTHLTVL" unit_label=% result_number=62.6
binder="PMX033 (antibody, V domains shown, also called PMX33) VH: EVQLVESGGDLVKPGGSLRLSCVASGFTFSSYHMSWVRQAPGKGLQWVAYITSGGRTTSYADAVKGRFTISRDNAKNTLYLQMKSLRAEDTAVYYCASDLVLVLGGAEYWGQGTLVTVSS VL: SYELTQPPSVNVTLRETAHITCGGDSIGRKYVQWIQQNPGQAPVVIIYKDSNRPTGIPERFSGANSGNTATLTISGALAEDEADYYCQVGDSGSKAVFGGGTHLTVL" unit_label=% result_number=55.8

Dear colleague, please send me the reported % Signal Inhibition Rep1 for PMX025 (antibody, V domains shown, also called PMX25) VH: EVHLVESGGDLVKPGGSLRLSCVASGFTFSSYHMSWVRQAPGKGLQWVAFINAGEISTNYADAVKGRFTISRDNAKNILYLQMNSLRAEDTAVYYCASGHIWIRPFDYWGQGTLVTVSS VL: SYVLTQLPSMSVTLRQTARITCEGDSIGRKRVNWYQQKLGQVPVLIIYDDDSRPSGIPERFSGANSGNTATLTISGALAEDEAEYYCQVWDSSNNWVFGEGTQLTVL when you can.
87.9

Please give measured % Signal Inhibition Rep1 of the following entry: PMX054 (antibody, V domains shown, also called PMX54) VH: EVHLVESGGDLVKPEGSLRLSCVVSGFTFSSYDMSWVRQAPGKGLQWVAYISSDGRSTGYTDAVKGRFTISRDNAKKTLYLQMNSLRSEDTAVYYCAKETPRWGFDYWGQGTLVTVSS VL: SYVLTQLPSVSVTLRQTARITCGGASIGSKNVYWHQQKLGQAPLLIIYDDSSRPSGIPERFSGANSGNTATLTISGALAEDEADYYCQVWDSSTSVFGGGTHLTVL
21
